TGT: recombinant human SYK360-635 (Homo sapiens)
Construct: made in house
PROTOCOL TEXT: Determination of IC50 of Spleen Tyrosine Kinase (SYK) inhibition, 33P ATP filtration assay
Assay type: biochemical
CONDITIONS: SYK aa 360-635 0.5 nM; ATP 20 μM, peptide 5 μM, 0.1% BSA; read-out: SYK_ENZYME_FILTRATION/v1, BSA
Counter-ions that a name gives are not always drawn.
Please provide measured IC50 for the entries that follow.
Answers are plain numbers, in nM.

Dear colleague, could you send me IC50 for each of the items below? Thanks.
1. CC(C)(C)NC(=O)c1c[nH]c2ncc(-n3ncc4ccc(Cl)cc43)nc12
2. Cn1nc(-c2cnc3[nH]cc(C(=O)NC4(C)CCCCC4)c3n2)c2ccc(F)cc21
3. COC[C@H](CCS(C)(=O)=O)NC(=O)c1c[nH]c2ncc(-c3nn(C)c4cc(F)ccc34)nc12
4. Cn1nc(-c2cnc3[nH]cc(C(=O)NC4(CO)CCC4)c3n2)c2ccc(F)cc21

1: 82.2; 2: 10.2; 3: 135; 4: 23.5

Quick one: give me IC50 for each item below, same order please.
1. CC(C)NC(=O)c1c[nH]c2ncc(-c3nn(C)c4ccc(C(C)O)cc34)nc12 (stereo not drawn)
2. CC(C)(C)NC(=O)c1c[nH]c2ncc(-c3nn(C4CCNC4)c4cc(F)ccc34)nc12 (stereo not drawn)
3. COC[C@H](C)NC(=O)c1c[nH]c2ncc(-c3nc(Cl)n4cc(F)ccc34)nc12
4. CC(C)c1ccc2c(c1)c(-c1cnc3[nH]cc(C(=O)NC(C)(C)C)c3n1)nn2C
5. C[C@@H](NC(=O)c1c[nH]c2ncc(-c3nn(C)c4cc(F)ccc34)nc12)C1=NCCO1
6. Cc1cccc2c(-c3cnc4[nH]cc(C(=O)NC(C)(C)CO)c4n3)n[nH]c12
7. Cc1ccc2c(cnn2-c2cnc3[nH]cc(C(=O)NC(C)(C)C)c3n2)c1
8. CC(C)NC(=O)c1c[nH]c2ncc(-c3nn(C)c4cc(Cl)cc(F)c34)nc12

1. 22.1
2. 24.6
3. 243
4. 15.1
5. 31.9
6. 5.12
7. 63.9
8. 22.6

Hey, quick one: what's IC50 for each of these?
1. CC(O)CCn1nc(-c2cnc3[nH]cc(C(=O)NC(C)(C)C)c3n2)c2cc(OC(F)F)ccc21 (stereo not drawn)
2. Cn1nc(-c2cnc3[nH]cc(C(=O)NC(C)(C)C(F)(F)F)c3n2)c2ccc(Cl)cc21
3. Cn1nc(-c2cnc3[nH]cc(C(=O)NC(C)(C)C(=O)OC(C)(C)C)c3n2)c2ccc(F)cc21
4. CC(NC(=O)c1c[nH]c2ncc(-c3nn(CCN(C)C)c4cc(F)ccc34)nc12)c1ccncc1 (stereo not drawn)
5. Cn1nc(-c2cnc3[nH]cc(C(=O)NC(C)(C)C4CC4)c3n2)c2ccc(Cl)cc21
6. C#CC(C)(C)NC(=O)c1c[nH]c2ncc(-c3nn(C)c4cc(F)ccc34)nc12
7. CCNC(=O)c1c[nH]c2ncc(-c3nn(CCCN(C)C)c4ccc(OC(F)F)cc34)nc12 [Example I-453, trifluoroacetate]

2.7
42.4
716
1990
18.5
9.95
85.7

Provide IC50 for all items below, preserving their order.
1. CC(CCCC(C)(C)O)NC(=O)c1c[nH]c2ncc(-c3nn(C)c4cc(Cl)ccc34)nc12 (stereo not drawn)
2. Cc1ccc2c(-c3cnc4[nH]cc(C(=O)NC(C)(C)C5CC5)c4n3)n[nH]c2c1
3. CC(C)(CO)NC(=O)c1c[nH]c2ncc(-n3ncc4ccccc43)nc12
4. Cn1nc(-c2cnc3[nH]cc(C(=O)NC(C)(C)CO)c3n2)c2cc(OC(F)F)ccc21
5. CC(C)(C)NC(=O)c1c[nH]c2ncc(-c3nn(CCCC(=O)O)c4ccc(OC(F)F)cc34)nc12

356
8.55
150
4.58
2.75
